Test: reversal of MRP1-mediated doxorubicin resistance, pilot screen, H69AR cells, doxorubicin co-treatment (AID 601)
Settings: H69AR cells + 2 uM doxorubicin, CellTiter-Glo, 72 h; at 10 µM; stronger effect = higher value
assay_readout: differential viability (reversal) (%)
Your answer should be a plain number; it is taken to be in %.

{"compound": "CCOc1ccc(N(CC(=O)NCC2CCCO2)S(=O)(=O)c2ccc(OC)c(OC)c2)cc1 (centres undefined)", "recorded_measurement": 19.2}
{"compound": "Cc1oc2c(c1C(=O)NCc1ccccc1)CCCC2", "recorded_measurement": 8.32}
{"compound": "CCc1ccc2oc(-c3cc(N)ccc3Cl)nc2c1", "recorded_measurement": -12.2}
{"compound": "O=C(Nc1ccccn1)N1CCOCC1", "recorded_measurement": 6.42}
{"compound": "CCN(CC)C(=O)C1CCN(CC2CC=CCC2)CC1 (centres undefined)", "recorded_measurement": -3.97}
{"compound": "CCOC(=O)C1=C(N)c2ccccc2CC1C(C)C (centres undefined)", "recorded_measurement": -4.15}

What measured differential viability (reversal) goes with "COc1ccc(-c2nnn(CCc3nn[nH]n3)n2)cc1OC" ?
-3.76

What measured differential viability (reversal) goes with "O=C1c2ccccc2C(=O)N1CCN1CCCCC1" ?
4.01

What measured differential viability (reversal) goes with CC(C)C12CN3CC(C(C)C)(CN(C1)C3c1ccc3c(c1)OCO3)C2=O (centres undefined) ?
-0.655

What measured differential viability (reversal) goes with Cc1ccc(CN2C(=O)CCC2C(=O)NCCCN2CCCC(C)C2)cc1 (centres undefined) ?
8.96

What measured differential viability (reversal) goes with "NC(=O)C1(N2CCCCC2)CCN(CC(=O)Nc2cc(Cl)ccc2Cl)CC1" ?
-11.5

What measured differential viability (reversal) goes with "CC(=O)c1c(C)[nH]c(C(=O)OCc2nnc(-c3ccccc3)o2)c1C" ?
-5.71

What measured differential viability (reversal) goes with "O=C(CSCc1ccc(F)cc1)NC1CCCC1" ?
13.6

* * *

Assay: growth inhibitors of H69AR lung tumor, primary screen, human, duplicate replicates (AID 580);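 note: 100% = mean luminescence of untreated wells and 0% = no signal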
Conditions: H69AR lung tumor cells viability, ATP luminescence, 72 h; at 10 µM; stronger effect = lower value
The source made the active and inactive calls.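 How the source made its calls: active means viability at or under a set limit in both replicates, limit being median viability minus 3 SD (cut at about 48% in these data, passing the limit was not always enough); inconclusive means at or under the limit in just one replicate; inactive means at or above the limit in both replicates.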
Below: a set of entries, each annotated with reported viability.

What measured viability goes with "c1ccc(CSc2nnc(-c3cccs3)n2Cc2ccco2)cc1" ?
83.2% (inactive)

What measured viability goes with "CN(C)Cc1cn(CCC(=O)O)c2ccccc12" ?
101% (inactive)

What measured viability goes with CC1=C(C(=O)NCc2ccccn2)C2(CCC(C)CC2)OC1=O (stereo unspecified) ?
89.4% (inactive)

What measured viability goes with "CCn1c(SCC(=O)Nc2cc(NC(C)=O)ccc2OC)nnc1-c1ccccn1" ?
94.1% (inactive)

What measured viability goes with "COC(=O)c1cn(-c2ccccc2)nc1C(=O)OC" ?
97.8% (inactive)

What measured viability goes with "N#Cc1cnc(SCC(=O)c2ccccc2)nc1N" ?
93.1% (inactive)

* * *

Below: a set of entries, each annotated with reported viability.
Test: reversal of MRP1-mediated doxorubicin resistance, pilot screen, H69AR cells, doxorubicin co-treatment (AID 601)
Details: H69AR cells + 2 uM doxorubicin, CellTiter-Glo, 72 h; measured here: viability with 2 uM doxorubicin; at 10 µM; stronger effect = lower value
Your answer should be a plain number; it is taken to be in %.

Some solved entries appear below for comparison.
{"compound": "Cc1ccc(CS(=O)(=O)Cc2ccc(C(=O)NCc3ccccn3)o2)cc1", "scale_unit": "%", "viability": 90.4}
{"compound": "Cc1cccc(N2CCN(C(=O)C3CCCN(S(=O)(=O)c4c(C)noc4C)C3)CC2)c1C (stereo not given)", "scale_unit": "%", "viability": 79.7}
{"compound": "O=C(NC1CCCCC1)c1nc2c(nnn2Cc2ccccc2Cl)c(=O)[nH]1", "scale_unit": "%", "viability": 98.4}
{"compound": "COc1ccc(C(=O)Nc2nc(C)c(C(=O)N(C)C)s2)cc1OC", "scale_unit": "%", "viability": 84.3}
{"compound": "Cc1sc2nc(SCC(=O)N3CCN(CCO)CC3)n(-c3ccccc3)c(=O)c2c1C", "scale_unit": "%", "viability": 87.2}
{"compound": "Cc1cc(C(C)(C)C)cc(C)c1CC1=NCCN1", "scale_unit": "%", "viability": 82.3}
{"compound": "C=CCSC1=C(C#N)C(c2ccccc2C)CC(=O)N1 (stereo not given)", "scale_unit": "%", "viability": 10.6}
{"compound": "CC(C)(C)OC(=O)N1CC=C2C(C#N)=C(N)C(C#N)(C#N)C(c3cccs3)C2C1 (stereo not given)", "scale_unit": "%", "viability": 57.8}
{"compound": "CC(=O)c1cc(-c2ccccc2)n(CC(=O)N2CCC(N3CCCCC3)CC2)c1C", "scale_unit": "%", "viability": 85.1}
{"compound": "CC(C)CC(OC(=O)c1cccs1)C(=O)NCc1ccco1 (stereo not given)", "scale_unit": "%", "viability": 81}

What measured viability goes with CCn1c(C(Cc2ccccc2)NC(=O)COC)nc2ccccc21 (stereo not given) ?
78.6

What measured viability goes with "Cc1ccc(NC(=O)CSc2nnc(-c3ccccn3)n2C)cc1" ?
92.3

What measured viability goes with "Cc1c(C)[n+](=O)c2c(n1[O-])CCCCC2" ?
86.3

What measured viability goes with "O=C(Cn1c(=O)oc2ccccc21)N1CCN(c2ccccc2)CC1" ?
92.1

What measured viability goes with "CNCCCN1c2ccccc2CCc2ccccc21" ?
75.8

What measured viability goes with "Cc1cc(C)n2nc(SCC(=O)N(C)Cc3ccccc3)nc2n1" ?
102

What measured viability goes with "CCOC(=O)c1cc2sc(C)cc2n1CC(=O)Nc1cccc(C)c1C" ?
94.2

What measured viability goes with "O=C(O)c1cccc(COCC(F)(F)C(F)F)c1" ?
95.9

What measured viability goes with O=C(NC1CCCCC1)C(c1ccccc1)N(Cc1ccco1)C(=O)Cn1cnc2ccccc21 (stereo not given) ?
70.1

What measured viability goes with "Cc1ccc(S(=O)(=O)N2CCN(c3nc(C)nc4sc(C)c(C)c34)CC2)cc1" ?
102

What measured viability goes with O=S(=O)(NCC1CCCO1)c1ccc(S(=O)(=O)N2CCc3ccccc3C2)cc1 (stereo not given) ?
89.8

What measured viability goes with "Nc1nc(NCc2ccco2)nn1-c1ccccc1" ?
80.9

What measured viability goes with "CSc1ccccc1NS(=O)(=O)c1ccccc1" ?
90.8

What measured viability goes with CCCC(C)C1C(C#N)=C(N)Oc2cc(C)oc(=O)c21 (stereo not given) ?
92.6
